// provenance: PubChem BioAssay (NCATS)

# System: CAOV3
# TEST METHOD NOTES: Primary qHTS to identify gynecologic anti-cancer compounds using libraries of approved drugs and bioactive compounds (AID 1345084); note: nearly all actives have a fitted effect of over 55% in size
# CONDITION PARAMETERS: Gynecologic cancer cell panel viability, ATPlite luminescence, 48 h; series mostly up to 57.5 µM
Records with an inconclusive call do not appear. Calls of active or inactive are those of the source. Calls come from the whole dose curve; as a rule, active = well fitted cell-killing curve with a large enough effect; inconclusive = small, poorly fitted or top-dose-only effect, or effect the other way; inactive = flat fitted curve, though single readings scatter.
Return exactly one item of active, inactive

Here are 5 molecules together with their reported answers.
> print(dat)
                                   molecule  classification
1  Cc1cnc(-c2cnc(NCCNc3ccc(C#N)cn3)nc2-c2ccc(Cl)cc2Cl)[nH]1        inactive
2   Cc1coc2c1C(=O)C(=O)c1c-2ccc2c1CCCC2(C)C        inactive
3  NC(=O)Nc1cc(-c2cccc(F)c2)sc1C(=O)N[C@H]1CCCNC1          active
4  CC(C)c1cc(-c2n[nH]c(=O)n2-c2ccc3c(ccn3C)c2)c(O)cc1O        inactive
5  NC(=O)c1cccc2cn(-c3ccc([C@@H]4CCCNC4)cc3)nc12        inactive

Q) Hello, I am checking results. What call was entered for COc1ccc2c(OCc3nnc4ccc(-c5ccccc5)nn34)ccnc2c1 ?
A) inactive

Q) Hello, I am checking results. What call was entered for C=CCn1c(=O)c2cnc(Nc3ccc(N4CCN(C)CC4)cc3)nc2n1-c1cccc(C(C)(C)O)n1 ?
A) active

Q) Hello, I am checking results. What call was entered for CC1(O)CC(c2nc(-c3ccc4ccc(-c5ccccc5)nc4c3)c3c(N)nccn23)C1 (stereo unspecified) ?
A) inactive

Q) Hello, I am checking results. What call was entered for CC(C)Nc1cc(C(F)(F)F)cc2nc(NC(=O)c3cccnc3)nn12 ?
A) inactive

Q) Hello, I am checking results. What call was entered for CC1COC2(CCN(c3nc(=O)c4cc(C(F)(F)F)cc([N+](=O)[O-])c4s3)CC2)O1 (stereo unspecified) ?
A) inactive

Q) Hello, I am checking results. What call was entered for CC(C)(O)CCc1ccc(OCc2cc(-c3cccc(OC(F)F)c3)c3ncccc3c2)cc1 ?
A) inactive

====

# TEST METHOD NOTES: qHTS of pediatric cancer cell lines to identify multiple opportunities for drug repurposing: Confirmatory screen for NB-EBc1 cells (AID 1347115);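 note: cells exposed to compound for 48 h before the viability read; nearly all actives have a fitted effect of over 45% in size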
# CONDITION PARAMETERS: NB-EBc1 neuroblastoma cells, viability (cytotoxicity); series mostly up to 45.9 µM
Records with an inconclusive call do not appear. The source made the active and inactive calls. Calls follow the shape of the dose curve; as a rule, active = well fitted cell-killing curve with a large enough effect; inconclusive = small, poorly fitted or top-dose-only effect, or effect the other way; inactive = no such curve, though single readings can be large or run the other way.
Return exactly one item of Y = active, N = inactive

Here are 5 compounds together with their reported answers.
> print(dat)
                                   compound  classification
1  COCCn1c2c([n+](Cc3cnccn3)c1C)C(=O)c1ccccc1C2=O               Y
2  COc1ccc(F)c(F)c1C(=O)c1cnc(NC2CCN(S(C)(=O)=O)CC2)nc1N               N
3  CS(=O)(=O)N1CCN(Cc2cc3nc(-c4cccc5[nH]ncc45)nc(N4CCOCC4)c3s2)CC1               Y
4  NCC(=O)Nc1ccc(-n2nc(C(F)(F)F)cc2-c2ccc3c(ccc4ccccc43)c2)cc1               Y
5  CN1CC[C@@H](c2c(O)cc(O)c3c(=O)cc(-c4ccccc4Cl)oc23)[C@@H](O)C1               N

Next up:
Q) Hello, I am checking results. What call was entered for COc1ccc(-c2cc3c(C)nc(N)nc3n(C3CCC(OCCO)CC3)c2=O)cn1 (centres undefined) ?
A) N

====

# TEST METHOD NOTES: qHTS of pediatric cancer cell lines to identify multiple opportunities for drug repurposing: Primary screen for OHS-50 cells (AID 1347103); note: potency is the fitted concentration of half-maximal effect; nearly all actives have a fitted effect of over 40% in size
# CONDITION PARAMETERS: OHS-50 osteosarcoma viability, CellTiter-Glo luminescence, 48 h; series mostly up to 57.3 µM
Inconclusive results are not listed. Calls of active or inactive are those of the source. Calls follow the shape of the dose curve; as a rule, active = well fitted cell-killing curve with a large enough effect; inconclusive = small, poorly fitted or top-dose-only effect; inactive = no such curve, though single readings can be large or run the other way.
Return exactly one item of label 1 = active, label 0 = inactive

Here are 10 compounds together with their reported answers.
> print(dat)
                                    compound  classification
 1  C=CCn1c(=O)c2cnc(Nc3ccc(N4CCN(C)CC4)cc3)nc2n1-c1cccc(C(C)(C)O)n1         label 1
 2  Cc1ccc2nc(NC(=O)CSc3nc4c(c(=O)n3-c3ccccc3)SCC4)sc2c1         label 1
 3  C=C1C(=CC=C2CCCC3(C)[C@@H]([C@H](C)C=CC=CC(O)(CC)CC)CC[C@@H]23)C[C@@H](O)C[C@@H]1O (some centres not stated)         label 1
 4  Cc1cc(Nc2cc(NC(=O)c3c(Cl)cccc3Cl)ccn2)nc(N)n1         label 1
 5  O=C(Nc1cn[nH]c1-c1nc2ccc(CN3CCOCC3)cc2[nH]1)NC1CC1         label 1
 6  CN(C)CC(C)(C)CNc1nn2c(-c3ccccc3)nnc2cc1C1CCC1         label 1
 7  Nc1nc(NCCNc2ncc(-n3ccnc3)c(-c3ccc(Cl)cc3Cl)n2)ccc1[N+](=O)[O-]         label 1
 8  CNC(=O)c1cc(Oc2ccc(NC(=O)Nc3cc(C(C)(C)C)nn3-c3ccc4ncccc4c3)c(F)c2)ccn1         label 1
 9  Nc1ccc(C(=O)c2cc3c(ccc4ccccc43)[nH]2)cc1         label 1
10  CC=C1NC(=O)[C@H]2CSSCCC=C[C@H](CC(=O)N[C@H](C(C)C)C(=O)N2)OC(=O)[C@H](C(C)C)NC1=O         label 1

Q) Hello, I am checking results. What call was entered for Fc1cc(-c2cccc3ncc(-c4cnn(C5CCNCC5)c4)nc23)cc(F)c1CN1CCOCC1 ?
A) label 1

====

# System: PA-1
# TEST METHOD NOTES: Primary qHTS to identify gynecologic anti-cancer compounds using libraries of approved drugs and bioactive compounds (AID 1345084); note: nearly all actives have a fitted effect of over 55% in size
# CONDITION PARAMETERS: Gynecologic cancer cell panel viability, ATPlite luminescence, 48 h; series mostly up to 57.5 µM
Records with an inconclusive call do not appear. The source made the active and inactive calls. The call rests on the fitted dose curve; in most records, active means well fitted cell-killing curve with a large enough effect; inconclusive means small, poorly fitted or top-dose-only effect, or effect the other way; inactive means flat fitted curve, though single readings scatter.
Return exactly one item of class 1 for active, class 0 for inactive

> print(dat)
                                   compound  experimental.target  classification
1  NC(=O)Nc1cc(-c2cccc(F)c2)sc1C(=O)N[C@H]1CCCNC1                 PA-1         class 1
2  CC(C)c1nn(-c2c(Cl)cccc2Cl)c2nc(Cc3ccc(OCCO)cc3)[nH]c(=O)c12                 PA-1         class 1
3  CC1(O)CC(c2nc(-c3ccc4ccc(-c5ccccc5)nc4c3)c3c(N)nccn23)C1 (stereo not given)                 PA-1         class 0
4  Cc1[nH]nc2ccc(-c3cncc(OC[C@@H](N)Cc4ccccc4)c3)cc12                 PA-1         class 1

Q) Hello, I am checking results. What call was entered for CN(C)CC(C)(C)CNc1nn2c(-c3ccccc3)nnc2cc1C1CCC1 ?
A) class 0

====

# TEST METHOD NOTES: qHTS Screen of the MIPE 4.0 Collection Against Ewings Sarcoma (TC71) (AID 1259253); note: potency is the fitted concentration of half-maximal effect; nearly all actives have a fitted effect of over 40% in size
# CONDITION PARAMETERS: TC71 Ewing sarcoma viability, CellTiter-Glo, 48 h; series mostly up to 45.8 µM
# Description: There is a large unmet medical need for treatments for Ewing sarcoma, a pediatric sarcoma. […] Using the NCATS developed oncology compound library called the Mechanism of Interrogation Plate (MIPE), four Ewing sarcoma cell lines were evaluated (TC32, TC71, RDES, EW8). Compounds, in a 12-point titration series, were incubated with cells for 48 hours and the read out was cell viability (CellTiter-Glo from Promega). […]
Results filed as inconclusive are left out. Activity calls are given as the source filed them. Calls come from the whole dose curve; as a rule, active = well fitted inhibition curve with a large enough effect; inconclusive = small, poorly fitted or top-dose-only effect; inactive = no such curve, though single readings can be large or run the other way.
Reported Potency values are given for each entry in this list.

Lookup result for CC(C)c1nn(-c2c(Cl)cccc2Cl)c2nc(Cc3ccc(OCCO)cc3)[nH]c(=O)c12 ; measured Potency: 132 nM (active)

Lookup result for O=C(O)c1ccc2cc(-c3ccc(O)c(C45CC6CC(CC(C6)C4)C5)c3)ccc2c1 ; measured Potency: 590 nM (active)

Lookup result for CCC1=C[C@@H]2CN(C1)Cc1c([nH]c3ccccc13)[C@@](C(=O)OC)(c1cc3c(cc1OC)N(C)[C@@H]1[C@@](O)(C(=O)OC)[C@H](OC(C)=O)[C@]4(CC)C=CCN5CC[C@]31[C@@H]54)C2 ; measured Potency: 166 nM (active)

Lookup result for COCCn1c2c([n+](Cc3cnccn3)c1C)C(=O)c1ccccc1C2=O ; measured Potency: 16.6 nM (active)

Lookup result for C[C@@H](Oc1cc(-n2cnc3ccc(CN4CCN(C)CC4)cc32)sc1C(N)=O)c1ccccc1C(F)(F)F ; measured Potency: 74.3 nM (active)

Lookup result for COc1ccc(F)c(F)c1C(=O)c1cnc(NC2CCN(S(C)(=O)=O)CC2)nc1N ; measured Potency: 1180 nM (active)

Lookup result for CCOc1cc2ncc(C#N)c(Nc3ccc(F)c(Cl)c3)c2cc1NC(=O)C=CCN(C)C ; measured Potency: 132 nM (active)

Lookup result for CNC(=O)c1c(F)cccc1Nc1nc(Nc2cc3c(cc2OC)CCN3C(=O)CN(C)C)nc2[nH]ccc12 ; measured Potency: 20900 nM (active)
